// data source = PubChem BioAssay AID1159580

Let's look at some molecules and their measured normalized growth.
assay.details: chemical genetic growth profiling, strain panel (AID 1159580);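 further: tested at 20 µM; growth read once vehicle control cultures reached saturation at 30 °C; 1 = growth at the plate median or of vehicle wells; lower values mean less growth of the strain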
condition.info: S. cerevisiae deletion strains, growth OD, locus YLR113W, strain HOG1, stronger effect = lower value
About 2,000 (36%) of roughly 5,500 compounds were called active. Not shown: some 18% with an inconclusive outcome. Some of the results follow.
measurement.type: normalized growth

molecule	measurement.type	measured.result
COc1ccc(C(=O)CSC2=NCCc3ccccc32)cc1	normalized growth	0.99 (inactive)
Cc1cc(Cl)ccc1NC(=S)NNC(=S)Nc1ccc(F)cc1	normalized growth	0.929 (inactive)
Nc1ccc(S(=O)(=O)Nc2ccc(Cl)nn2)cc1	normalized growth	0.984 (inactive)
O=C(O)CCCCC1CCSS1 (stereo unspecified)	normalized growth	0.961 (inactive)
NC(=O)CCCCC1CCSS1 (stereo unspecified)	normalized growth	1.02 (inactive)
C[n+]1cccc(C(=O)[O-])c1	normalized growth	1.04 (inactive)
O[N+]1=CC=CCC1=S.On1ccccc1=S.[Zn]	normalized growth	0.14 (active)
C/C(=C\c1ccc2c(c1)OCO2)[N+](=O)[O-]	normalized growth	0.126 (active)
CSc1ccc(/C=C(\C)[N+](=O)[O-])cc1	normalized growth	0.176 (active)
CCCc1c(C(=O)NC2Cc3ccccc3C2)cnn1-c1ccccc1	normalized growth	0.951 (inactive)
COC(=O)C[C@H]1C(C)(C)C(=O)[C@@H]2CC3=C4CC(=O)O[C@@H](c5ccoc5)[C@]4(C)CCC3[C@@]1(C)C2=O (stereo partly specified)	normalized growth	1.01 (inactive)
CSc1cc(-c2ccncc2)nc(-c2cccs2)c1	normalized growth	0.92 (inactive)
CCCCC1=NC2(CCCC2)C(=O)N1Cc1ccc(-c2ccccc2-c2nn[nH]n2)cc1	normalized growth	1.02 (inactive)
C[C@H](N)[C@H](O)c1ccc(O)c(O)c1	normalized growth	0.967 (inactive)
N#CC(C#N)=C/C=C(/Sc1ccc(F)c(Cl)c1)c1ccc(Cl)cc1	normalized growth	0.632 (active)
CC(C)=CCC[C@](C)(O)C1CC=C(C)CC1 (stereo partly specified)	normalized growth	1.02 (inactive)
C=CC(C)(O)CC/C=C(\C)CCC=C(C)C (stereo unspecified)	normalized growth	0.868 (inactive)
CC(C)=CCC/C(C)=C/CC/C(C)=C/CO	normalized growth	0.35 (active)
O=C1C=CC2=C3c4cc(O)c(O)cc4CC3(O)COC2=C1O (stereo unspecified)	normalized growth	1.06 (inactive)
CC(C)=CCC/C(C)=C/CC/C(C)=C/CC/C(C)=C/CO	normalized growth	0.975 (inactive)
CNC[C@@H](O)c1ccc(O)c(O)c1	normalized growth	1.08 (inactive)

---

assay.details: chemical genetic growth profiling, strain panel (AID 1159580)
condition.info: S. cerevisiae deletion strains, growth OD, locus YNL183C, strain NPR1, stronger effect = lower value
The campaign covered roughly 5,500 compounds. About 2,000 (36%) were called active. Inconclusive results (about 18%) are left out. The list shows a part of the results.

molecule	normalized growth
CCCC(C)C1(CC)C(=O)NC(=O)NC1=O (configuration not stated)	0.922
O=C(NCCSCc1cccc(C(F)(F)F)c1)c1ccc(Cl)cc1	0.819
Nc1ccc(C(=O)NCC(=O)O)cc1	0.908
C=CCC1(C(C)CCC)C(=O)N=C(S)NC1=O (configuration not stated)	0.929
O=C(NCCSCc1ccco1)Nc1cc(Cl)cc(Cl)c1	0.845
CCCC(C)C1(CC)C(=O)N=C(S)NC1=O (configuration not stated)	0.923
CN/C(=C\[N+](=O)[O-])NCCSCc1ccc(CN(C)C)o1	0.944

---

assay.details: chemical genetic growth profiling, strain panel (AID 1159580);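 further: tested at 20 µM; growth read once vehicle control cultures reached saturation at 30 °C; 1 = growth at the plate median or of vehicle wells; lower values mean less growth of the strain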
condition.info: S. cerevisiae deletion strains, growth OD, locus YNR052C, strain pop2, stronger effect = lower value
Hit rate of the full screen: of about 5,500 compounds, about 2,000 (36%) were called active. Not shown: some 18% with an inconclusive outcome. This is one part of the list.
Let's look at some molecules and their measured normalized growth.

molecule	normalized growth
CCCCC1(COC(=O)CCC(=O)O)C(=O)N(c2ccccc2)N(c2ccccc2)C1=O	1.01
C=CC(C)(O)CC/C=C(\C)CCC=C(C)C (stereo unspecified)	0.933
c1ccc2c3c([nH]c2c1)CNCC3	0.971
COc1cc2c(c(OC)c1OC)-c1ccc(O)c(=O)cc1[C@@H](NC(C)=O)CC2	0.961
COc1cc2c(c(OC)c1OC)-c1ccc(OC)c(=O)cc1[C@@H](NC(C)=O)CC2	1.02
CN[C@H](CC(=O)O)C(=O)O	0.978

---

assay.details: chemical genetic growth profiling, strain panel (AID 1159580);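 further: tested at 20 µM; growth read once vehicle control cultures reached saturation at 30 °C; 1 = growth at the plate median or of vehicle wells; lower values mean less growth of the strain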
condition.info: S. cerevisiae deletion strains, growth OD, locus YML124C, strain tub3, stronger effect = lower value
The campaign covered roughly 5,500 compounds. About 2,000 (36%) were called active. Another 18% or so got no clear call; they are omitted. The list shows a part of the results.
The label is met for normalized growth below 1 and not met for normalized growth equal to or exceeding 1.

compound	answer.label
Oc1c(I)cc(I)c2cccnc12	met
CC1(C)C(=O)C=C[C@@]2(C)C1=C(O)C(=O)[C@]1(C)C2CC[C@@]2(C)[C@H](c3ccoc3)C[C@H]3O[C@]321 (some centres undefined)	met
O=C1C=CC2=C3c4cc(O)c(O)cc4CC3(O)COC2=C1O (centres undefined)	not met

---

assay.details: chemical genetic growth profiling, strain panel (AID 1159580);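 further: tested at 20 µM; growth read once vehicle control cultures reached saturation at 30 °C; 1 = growth at the plate median or of vehicle wells; lower values mean less growth of the strain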
condition.info: S. cerevisiae deletion strains, growth OD, locus YOR290C, strain snf2
The campaign covered roughly 5,500 compounds. About 2,000 (36%) were called active. About 18% were inconclusive and are not listed. Rule as the data show it: active = normalized growth mostly below about 0.91 (no sharp cut-off); inconclusive = no clear call, values can overlap the other calls; inactive = mostly above about 0.92. Some of the results follow.
Labels: t (active), f (inactive)

compound	answer.label
CC(C)(C)NC[C@@H](O)COc1nsnc1N1CCOCC1	f
C=C(NC(=O)C(=C)NC(=O)c1csc(C2=NC3c4csc(n4)C4NC(=O)c5csc(n5)C(C(C)(O)C(C)O)NC(=O)C5CSC(=N5)C(=CC)NC(=O)C(C(C)O)NC(=O)c5csc(n5)C3(CC2)NC(=O)C(C)NC(=O)C(=C)NC(=O)C(C)NC(=O)C(C(C)CC)NC2C=Cc3c(C(C)O)cc(nc3C2O)C(=O)OC4C)n1)C(N)=O (stereo unspecified)	f
O=C(O)CCCCC1CCSS1 (stereo unspecified)	f
NCC(O)c1ccc(O)cc1 (stereo unspecified)	f
O=C1C=CC2=C3c4cc(O)c(O)cc4CC3(O)COC2=C1O (stereo unspecified)	f
Oc1c(Cl)cc(Cl)c2cccnc12	t
Nc1ncnc2c1ncn2[C@@H]1O[C@H](CO)[C@@H](O)[C@H]1O	f
O=C(O)C1=CCNCC1	f
C[C@H]1[C@H]2CCC3C4CC=C5C[C@@H](N(C)C)CC[C@]5(C)C4CC[C@@]32CN1C (stereo partly specified)	f
CCN(CC)CCOc1ccc2c(c1)C(=O)c1cc(OCCN(CC)CC)ccc1-2	f
CC/C(=C(\c1ccccc1)c1ccc(OCCN(C)C)cc1)c1ccccc1	t
O=C(O)CF	f
O[N+]1=CC=CCC1=S.On1ccccc1=S.[Zn]	t
Cc1ccc(/C(=C\CN2CCCC2)c2ccccn2)cc1	f
Oc1c(Br)cc(Br)c2cccnc12	t
CCC(Cc1c(I)cc(I)c(N)c1I)C(=O)O (stereo unspecified)	f
C/C=C/c1ccc2c(c1)OCO2	f
C=C(C)C1CC=C(CO)CC1 (stereo unspecified)	f
CC(C)NCC(O)c1ccc2ccccc2c1 (stereo unspecified)	f
N[C@@H](Cc1ccc(O)c(O)c1)C(=O)O	f
CC1(C)C(=O)C=C[C@@]2(C)C1=C(O)C(=O)[C@]1(C)C2CC[C@@]2(C)[C@H](c3ccoc3)C[C@H]3O[C@]321 (stereo partly specified)	t
Cc1ccc2c(Cl)cc(Cl)c(O)c2n1	f
CC(C)=CCC/C(C)=C/CC/C(C)=C/CC/C(C)=C/CC/C(C)=C/CC/C(C)=C/CC/C(C)=C/CC/C(C)=C/CC/C(C)=C/CO	f
CN1C(CC(=O)c2ccccc2)CCCC1CC(O)c1ccccc1 (stereo unspecified)	f
Oc1c(I)cc(Cl)c2cccnc12	t
CC(=O)NCCCS(=O)(=O)O	f
C[n+]1cccc(C(=O)[O-])c1	f
CCCC(C)C1(CC)C(=O)NC(=O)NC1=O (stereo unspecified)	f
CN/C(=C\[N+](=O)[O-])NCCSCc1ccc(CN(C)C)o1	f
C=C(CC)C(=O)c1ccc(OCC(=O)O)c(Cl)c1Cl	f
Nc1ccc(S(=O)(=O)Nc2ccc(Cl)nn2)cc1	f
CC(C)=CCC[C@](C)(O)C1CC=C(C)CC1 (stereo partly specified)	f
COC(C)(C)CCC[C@H](C)C/C=C/C(C)=C/C(=O)OC(C)C	f
CC(=O)Nc1ccc(S(=O)(=O)c2ccc(NC(C)=O)cc2)cc1	f
CO[C@H]1/C=C/O[C@@]2(C)Oc3c(C)c(O)c4c(O)c(c(/C=N/N5CCN(C)CC5)c(O)c4c3C2=O)NC(=O)/C(C)=C\C=C\C(C)[C@H](O)[C@@H](C)[C@@H](O)[C@@H](C)[C@@H](OC(C)=O)[C@@H]1C (stereo partly specified)	f
O=C1O[C@H](C(O)CO)C(O)=C1O (stereo partly specified)	f
CCCCC1=NC2(CCCC2)C(=O)N1Cc1ccc(-c2ccccc2-c2nn[nH]n2)cc1	f
C=C[C@@H](C1=CC(=O)C(OC)=C(OC)C1=O)c1ccccc1	f
C[C@H](N)[C@H](O)c1ccc(O)c(O)c1	f
CCN(CC)CCOc1ccc(/C(=C(\Cl)c2ccccc2)c2ccccc2)cc1	t
Oc1c(I)cc(I)c2cccnc12	t
C=CC(C1=CC(=O)C=CC1=O)c1ccccc1 (stereo unspecified)	f
O=c1[nH]c(=O)n(C2C[C@@H](O)[C@@H](CO)O2)cc1F (stereo partly specified)	f
CC(C)NCC(O)c1ccc(O)c(O)c1 (stereo unspecified)	f
Nc1ccc(S(=O)(=O)Nc2ccccn2)cc1	f
C=C(C)[C@H]1CC=C(C(=O)O)CC1	f
